| structure.string | melting point (°C) |
| --- | --- |
| Cc1c(-c2ccc3cc(-c4cccc(OC(F)(F)F)c4)cn3c2)[nH]c2ccccc2c1=O | 257.8 |
| Cc1c(-c2ccc3nc(Cc4ccc(OC(F)(F)F)cc4)cn3c2)[nH]c2ccccc2c1=O | 244.8 |
| Cc1c(-c2ccc3nc(-c4cccc(OC(F)(F)F)c4)cn3c2)[nH]c2ccccc2c1=O | 229.9 |
| Cc1c(-c2ccc3cc(-c4cccc(OC(F)(F)F)c4)nn3c2)[nH]c2ccccc2c1=O | 243.7 |
| Cc1c(-c2ccc3nc(-c4ccccc4)cn3c2)[nH]c2ccccc2c1=O | 337.2 |
